Where do the numbers come from? From PubChem BioAssay (NCATS).

Tested on: Zika virus NS2B-NS3 protease (unlinked complex)
Experiment: Primary screen GU Rhodamine qHTS for Zika virus inhibitors: Unlinked NS2B-NS3 protease assay (AID 1347159); also: % is scaled to controls: 0 for no effect and ±100 for the full control effect; nearly all actives have a fitted effect of over 60% in size
Details: Recombinant ZIKV NS2B-NS3 protease, Rhodamine110 substrate fluorescence; series mostly up to 107 µM
Records with an inconclusive call do not appear. Calls of active or inactive are those of the source. Calls follow the shape of the dose curve; as a rule, active = well fitted inhibition curve with a large enough effect; inconclusive = small, poorly fitted or top-dose-only effect; inactive = no such curve, though single readings can be large or run the other way.
Select the correct class. Options are yes = active, no = inactive and nothing else.

Query :: Hi, do you know how COCC(c1ccc(C(F)(F)F)cc1)N1CCN(C2(C)CCN(C(=O)c3c(C)ncnc3C)CC2)CC1C (stereo not given) came out in this test?
Result :: no

Query :: Kindly provide the recorded test outcome for the following compound: Cc1nc(Nc2ccc(F)cc2)nc(N2CCc3ccccc3C2C)c1C (stereo not given)
Result :: no

###

Hi there, I'd appreciate the recorded Potency for every entry that follows.
Target: Glucocorticoid receptor (Homo sapiens)
Assay: GR-GFP Redistribution (AID 450); also: potency is read from the fitted curve at half-maximal effect
Settings: U2OS GR-GFP nuclear translocation, laser cytometry, 2 h
Active and inactive are the calls of the source.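 How the source made its calls: active means compounds whose dose series gives a full or clear partial fitted curve of increased nuclear translocation; inconclusive means weak partial curve or effect only at the top dose; inactive means no dose-dependent translocation response.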

Worked set:
MOL	PARAMETER	RESULT VALUE
COC1=CC(=O)C[C@@H](C)[C@@]12Oc1c(Cl)c(OC)cc(OC)c1C2=O	Potency	> 46 µM (inactive)
CN(C)CCCn1cc(C2=C(c3c[nH]c4ccccc34)C(=O)NC2=O)c2ccccc21	Potency	> 46 µM (inactive)
C[C@]12CC[C@@H]3c4ccc(OS(=O)(=O)O)cc4CC[C@H]3[C@@H]1CCC2=O	Potency	> 20.6 µM (inactive)
NCCCC(=O)O	Potency	> 46 µM (inactive)
CC(C)CCNC(=O)[C@H](CC(C)C)NC(=O)[C@H]1O[C@@H]1C(=O)O	Potency	> 20.6 µM (inactive)

Next item in the queue.
Query :: Missing value: Potency, Glucocorticoid receptor (Homo sapiens), entry CCc1ccccc1OC[C@@H](O)CN[C@H]1CCCc2ccccc21 . Fill in?
Result :: > 46 µM (inactive)

###

System: Es-2
Test: Primary qHTS to identify gynecologic anti-cancer compounds using libraries of approved drugs and bioactive compounds (AID 1345084); also: nearly all actives have a fitted effect of over 55% in size
Conditions: Gynecologic cancer cell panel viability, ATPlite luminescence, 48 h; series mostly up to 57.5 µM
Records with an inconclusive call do not appear. Activity calls are given as the source filed them. The call rests on the fitted dose curve; in most records, active means well fitted cell-killing curve with a large enough effect; inconclusive means small, poorly fitted or top-dose-only effect, or effect the other way; inactive means flat fitted curve, though single readings scatter.
Respond with a class label; see 1 (yes) (active), 0 (no) (inactive)

COMPOUND	TARGET OR TEST SYSTEM	CLASS NAME
CC(C)=C[C@@H]1[C@H](CO[C@@H]2O[C@H](CO)[C@@H](O)[C@H](O)[C@H]2O)C1(C)C	Es-2	0 (no)

Query :: Fill in: this test's call for Cc1c(C(=O)NCc2cccnc2)nn(-c2ccc(Cl)cc2Cl)c1-c1ccc(Cl)cc1 is ___
Result :: 0 (no)

Query :: Returns: the outcome recorded for O=C(Nc1ccc2[nH]c(=O)oc2c1)C(=O)N1CCC(Cc2ccc(F)cc2)CC1 in this assay.
Result :: 0 (no)

Query :: Status in this test for CCC(=O)N1CCOc2c(cc(-c3ccc(OC)c(OC)c3)cc2OC[C@H]2CCCN(C)C2)C1 ?
Result :: 0 (no)

Query :: Could you please tell me the result logged for OC1C=C2C3CN(Cc4cc5c(cc43)OCO5)C2CC1O (stereo not given) in this assay?
Result :: 1 (yes)

Query :: Which outcome was assigned to CC(C)(C)C1CCN(C(=O)n2ncc(C(O)(c3ccccc3)c3ccccc3)n2)CC1 in this test?
Result :: 0 (no)

Query :: Outcome logged for O=C(O)CSc1cc(NS(=O)(=O)c2ccc(Br)cc2)c2ccccc2c1O in this assay:
Result :: 0 (no)

Query :: Please indicate how the test categorized CN(C)C(CCOc1cccc2ccccc12)c1ccccc1 (stereo not given) .
Result :: 0 (no)

Query :: I'd appreciate the recorded outcome for C=C(C(=O)OC)[C@@H]1CC=C2C=CC(=O)[C@H](C)[C@@]2(C)C1 from this test.
Result :: 0 (no)

Query :: Which result was noted for this compound in the test: COC1=CC(=O)O/C1=C(/OC)[C@@H]1O[C@H]1c1ccccc1
Result :: 0 (no)

###

Tested on: HeLa
Experiment: Primary qHTS to identify gynecologic anti-cancer compounds using libraries of approved drugs and bioactive compounds (AID 1345084); also: nearly all actives have a fitted effect of over 55% in size
Settings: Gynecologic cancer cell panel viability, ATPlite luminescence, 48 h; series mostly up to 57.5 µM
Records with an inconclusive call do not appear. Active and inactive are the calls of the source. Calls follow the shape of the dose curve; as a rule, active = well fitted cell-killing curve with a large enough effect; inconclusive = small, poorly fitted or top-dose-only effect, or effect the other way; inactive = flat fitted curve, though single readings scatter.
Response enum: active, inactive

Please review the following examples before continuing.
COMPOUND	CLASS NAME
CC(=O)O[C@]1(C(C)=O)CC[C@H]2[C@@H]3CCC4=CC(=O)CCC4=C3[C@@H](c3ccc(N(C)C)cc3)C[C@@]21C	inactive
CCC[C@@]1(CCc2ccccc2)CC(O)=C([C@H](CC)c2cccc(NS(=O)(=O)c3ccc(C(F)(F)F)cn3)c2)C(=O)O1	inactive
Cc1c(F)ccc(C(=O)Nc2cc([N+](=O)[O-])ccc2N2CCN(C)CC2)c1Cl	inactive

Query :: Test call, this compound: CC(=O)O[C@@H]1CC2C(C)(C)C(=O)C=C[C@]2(C)C2CC[C@@]3(C)[C@H](c4ccoc4)OC(=O)[C@H]4O[C@]43[C@@]21C (stereo partly specified)
Result :: inactive

Query :: What did this assay record as the result for C=C(NC(=O)C(=C)NC(=O)c1csc(C2=NC3c4csc(n4)C4NC(=O)c5csc(n5)C(C(C)(O)C(C)O)NC(=O)C5CSC(=N5)/C(=C/C)NC(=O)C(C(C)O)NC(=O)c5csc(n5)C3(CC2)NC(=O)C(C)NC(=O)C(=C)NC(=O)C(C)NC(=O)C(C(C)CC)NC2C=Cc3c(C(C)O)cc(nc3C2O)C(=O)OC4C)n1)C(N)=O (stereo unspecified) ?
Result :: inactive

Query :: Called result for C=C1C(=O)O[C@@H]2[C@H]1CCC(C)=C(CCC(=O)O)[C@@]2(C)O
Result :: inactive

Query :: Name the outcome recorded for C[C@@H]1CC[C@]2(C(=O)O)CC[C@]3(C)C(=CCC4[C@@]5(C)CC[C@H](O)[C@](C)(C(=O)O)C5CC[C@]43C)C2[C@]1(C)O (stereo partly specified) in the assay.
Result :: inactive

Query :: # fetch the recorded call for CN(C)C(=O)Nc1cc(-c2ccccc2)ccc1N(C)C here
Result :: inactive

Query :: Status in this test for CC(=O)OC1C(OC(=O)c2ccccc2)C2C(=C(C)CCC2(C)C)C23CCC(C)(C2)C(=O)CC13 (stereo unspecified) ?
Result :: inactive

Query :: What outcome does the record of this test show for O=C(O)c1cccc(-c2ccc(-c3cn(C(=O)N4CCCCC4Cc4ccccc4)nn3)cc2)c1 (stereo unspecified) ?
Result :: inactive

Query :: Could you kindly confirm the outcome this assay logged for C1=C/COCc2cc(ccc2OCCN2CCCC2)Nc2nccc(n2)-c2cccc(c2)COC/1 ?
Result :: active

Query :: Field: outcome | Entry: CCOc1ccc(S(=O)(=O)N2CCCCCC2)c2ccccc12
Result :: inactive

###

System: JEG-3
Experiment: Primary qHTS to identify gynecologic anti-cancer compounds using libraries of approved drugs and bioactive compounds (AID 1345084); also: nearly all actives have a fitted effect of over 55% in size; as to activity change, negative = cytotoxicity: % is scaled to controls: 0 for no effect and ±100 for the full control effect
Details: Gynecologic cancer cell panel viability, ATPlite luminescence, 48 h; series mostly up to 57.5 µM
Inconclusive results are not listed. Calls of active or inactive are those of the source. Calls follow the shape of the dose curve; as a rule, active = well fitted cell-killing curve with a large enough effect; inconclusive = small, poorly fitted or top-dose-only effect, or effect the other way; inactive = flat fitted curve, though single readings scatter.
PARAMETER: activity change, negative = cytotoxicity

Look over these answered cases.
MOLECULE	TARGET OR TEST SYSTEM	activity change, negative = cytotoxicity
O=C(Nc1ccccc1)N1CCN(c2nc(-c3ccccc3)ns2)CC1	JEG-3	inactive
COc1cc2nc(N3CCN(C(=O)c4ccco4)C4CCCCC43)nc(N)c2cc1OC (centres undefined)	JEG-3	inactive
CC(=O)OC1C(O)CC2(C)C(CCC3(C)C2CC=C2C4C5(CCC(CO[C@@H]6O[C@H](CO)[C@@H](O)[C@H](O)[C@H]6O)(OC5=O)C4(C)O)C(O)CC23C)C1(C)C (some centres undefined)	JEG-3	inactive
C=C1C(=O)OC2CC3(C)C(O)C(=O)C=C(C)C3CC12 (centres undefined)	JEG-3	inactive

Consider the following items and state reported activity change, negative = cytotoxicity for each.
1. C#Cc1cccc(Nc2nc3cc(C(=O)O)ccc3c3cncnc23)c1
2. CCCc1cc2c(N3CCN(C4=NCC(C)(C)S4)CC3)ncnc2s1
3. Cc1nc(C#Cc2ccnc(Cl)c2)c(C)n1-c1ccc(F)cc1
4. COc1c(C(C)C)c(O)c(O)c2c1C(OC)[C@H]1OC(=O)[C@@]23CCCC(C)(C)[C@H]13 (some centres undefined)
5. CC(C)=CCC[C@](C)(O[C@@H]1O[C@H](CO[C@@H]2OC[C@@H](O)[C@H](O)[C@H]2O)[C@@H](O)[C@H](O)[C@H]1O)[C@H]1CC[C@]2(C)[C@@H]1[C@H](O)C[C@@H]1[C@@]3(C)CC[C@H](O[C@@H]4O[C@H](CO)[C@@H](O)[C@H](O)[C@H]4O)C(C)(C)[C@@H]3CC[C@]12C
6. CCCOc1ccc(S(=O)(=O)N2CCN(CCO)CC2)cc1-c1nc2c(CCC)cn(CC)c2c(=O)[nH]1
7. CNc1nc(NCc2ccc(NS(C)(=O)=O)cc2Cl)cc(-c2ccccn2)n1

Result ::
1. inactive
2. inactive
3. inactive
4. inactive
5. inactive
6. inactive
7. inactive

Batch request: activity change, negative = cytotoxicity per item, same order as input.
1. C/C=C/C1=CC2=C(CO1)C(=O)C(C)(OC(=O)c1c(C)cc(O)cc1OC)C(O)C2 (centres undefined)
2. COc1cc(C(=O)NCC2(N(C)C)CCCC2)cc(OC)c1OCc1ccccc1
3. CN(C)C(=O)Nc1cccc(-c2ccc(N(C)C)cc2)c1
4. N[C@@H]1c2cccnc2[C@H](OC(=O)N2CCC(n3c(=O)[nH]c4ncccc43)CC2)CC[C@H]1c1cccc(F)c1F
5. NC(N)=NC(=O)c1cnn(-c2cccc3ncccc23)c1C1CC1
6. CN1CC[C@@H](c2c(O)cc(O)c3c(=O)cc(-c4ccc(C(F)(F)F)cc4Cl)oc23)[C@@H]1CO
7. C=C1C(=O)O[C@@H]2/C=C(\CO)CC/C=C(/C=O)C[C@@H](O)[C@@H]12

Result ::
inactive
inactive
inactive
inactive
inactive
inactive
inactive

Please look at the items below and tell me activity change, negative = cytotoxicity for each one, in order.
1. CC(C)(Cc1nc(-c2ccc(O)cn2)no1)C(=O)NC1=C(C(=O)O)CCCC1
2. O=C(O)c1cc(N(Cc2ccc(C3CCCCC3)cc2)C(=O)c2ccc(Oc3ccccc3)cc2)ccc1O
3. Fc1ccc(-c2nc(-c3ccccc3F)[nH]c2-c2ccncc2)cc1
4. O=S(=O)(c1ccccc1)N(CC(F)(F)F)c1ccc(C(O)(C(F)(F)F)C(F)(F)F)cc1

Result ::
1. inactive
2. inactive
3. inactive
4. inactive

# batch: return activity change, negative = cytotoxicity for each of the 6 molecules below
1. CC(CCC1(O)OC2CC3C4CC=C5CC(O[C@@H]6O[C@H](CO)[C@@H](O[C@@H]7O[C@@H](C)[C@H](O)[C@@H](O)[C@H]7O)[C@H](O)[C@H]6O[C@@H]6O[C@@H](C)[C@H](O)[C@@H](O)[C@H]6O)CCC5(C)C4CCC3(C)C2C1C)CO[C@@H]1O[C@H](CO)[C@@H](O)[C@H](O)[C@H]1O (some centres undefined)
2. COc1ccc(C#Cc2ccc(C(=O)N3CCC[C@@H](O)C3)c(F)c2)cc1
3. CCOC(=O)c1cnn(-c2ccccc2)c1NC(=O)c1cc2nc(-c3ccco3)cc(C(F)(F)Cl)n2n1
4. CC(C)C(C)C(O)C1CC23CC(=O)C4(O)C(=C2CCC3C1C)C=CC1(O)CC(O)CCC14C (centres undefined)
5. CN(c1ccc(NC(=O)Nc2ccccc2)cc1)S(=O)(=O)c1cnn(-c2ccc(F)cc2)c1
6. CCOC(=O)CCNc1cc(N2CCc3ccccc3CC2)nc(-c2cccnc2)n1

Result ::
1: 10.4% [at 11.6 µM] (inactive); 2: inactive; 3: inactive; 4: inactive; 5: inactive; 6: inactive

For the 3 molecules below, give their activity change, negative = cytotoxicity values.
1. Cc1cccc(-c2[nH]ncc2-c2ccc(F)c(-c3cnn(CCO)c3)c2)n1
2. COc1cc2c(c(OC)c1CC=C(C)C)C[C@H](c1ccc(O)c(CC=C(C)C)c1O)CO2
3. C=C1C(=O)O[C@@H]2C3=C(C)CCC[C@]3(C)CC[C@@]12O

Result ::
1: inactive; 2: inactive; 3: inactive

Provide the reported activity change, negative = cytotoxicity of each entry below, same order.
1. CCCCC1CCN(CCCN2C(=O)CCc3ccccc32)CC1
2. CN(C)C(=O)C(=O)c1cn(C)c2cc(Cl)c(C(=O)N3CCC(Cc4ccc(F)cc4)CC3)cc12
3. Cc1ccc(C)c(NC(=O)[C@@H]2CCCN2S(=O)(=O)c2cccc3cccnc23)c1

Result ::
1. inactive
2. inactive
3. inactive
